- Target Of Assay: UniProtKB Q92731
- Sequence (Q92731 whole entry): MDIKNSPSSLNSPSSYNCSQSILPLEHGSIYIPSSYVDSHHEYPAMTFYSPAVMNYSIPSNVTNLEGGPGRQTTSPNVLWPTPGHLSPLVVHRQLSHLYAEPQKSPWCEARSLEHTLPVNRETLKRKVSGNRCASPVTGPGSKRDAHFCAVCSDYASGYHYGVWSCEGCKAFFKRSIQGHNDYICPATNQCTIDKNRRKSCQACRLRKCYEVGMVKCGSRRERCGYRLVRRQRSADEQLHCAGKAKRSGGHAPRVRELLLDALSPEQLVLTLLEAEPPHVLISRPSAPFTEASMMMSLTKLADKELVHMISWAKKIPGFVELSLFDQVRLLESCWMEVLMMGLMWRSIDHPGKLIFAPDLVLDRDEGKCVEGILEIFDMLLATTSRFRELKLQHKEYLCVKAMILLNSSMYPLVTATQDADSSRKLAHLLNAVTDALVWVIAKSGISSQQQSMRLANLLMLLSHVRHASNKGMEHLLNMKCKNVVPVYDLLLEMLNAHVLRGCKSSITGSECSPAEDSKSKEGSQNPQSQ
- Protocol Details: Luciferase reporter gene assay in HeLa cells, agonistic activity
- Type: cell-based
- Design: expressed in transfected cells; host or cells: HeLa
- Test Conditions: HeLa cells, ERE luciferase reporter; tested up to 10 µM
Doc: threshold 2 (exclusive). Items with maximum fold induction (agonistic activity on ERβ) beneath it return Condition met; others return Condition not met.

Compound: CCCCC(CC)C(c1ccc(O)cc1)c1ccc(O)cc1 (centres unmarked)
Discrete Label: Condition met
//
Compound: Oc1ccc(C(=C(Cl)Cl)c2ccc(O)cc2)cc1
Discrete Label: Condition not met
//
Compound: Cc1cc(C2(c3ccc(O)c(C)c3)CCCCC2)ccc1O
Discrete Label: Condition not met
//
Compound: CC(C)(c1ccc(O)cc1)c1ccc(C(C)(C)c2ccc(O)cc2)cc1
Discrete Label: Condition met
//
Compound: Cc1cc(C(C)(C)c2ccc(C(C)(C)c3cc(C)c(O)c(C)c3)cc2)cc(C)c1O
Discrete Label: Condition met

---

- Target Of Assay: UniProt:Q92731
- Protocol Details: Luciferase reporter gene assay in HeLa cells, agonistic activity
- Format: cell-based
- Parameters: expressed in transfected cells; host or cells: HeLa
- Test Conditions: HeLa cells, ERE luciferase reporter; tested up to 10 µM
A collection of compounds and their measured maximum fold induction (agonistic activity on ERβ)
Reported Endpoint: maximum fold induction (agonistic activity on ERβ)

Compound: Oc1ccc(C2(c3ccc(O)cc3)c3ccccc3-c3ccccc32)cc1 [Compound 14, 9,9-Bis(4-hydroxyphenyl)fluorene]
Measured Value: 2.47

Compound: CCC(C)(c1ccc(O)cc1)c1ccc(O)cc1 [Compound 8, 4,4'-(butane-2,2-diyl)diphenol]
Measured Value: 5.13

Compound: Nc1cc(C(c2ccc(O)c(N)c2)(C(F)(F)F)C(F)(F)F)ccc1O [Compound 13]
Measured Value: 1.67

Compound: Oc1ccc(C2(c3ccc(O)cc3)CCCCC2)cc1 [Compound 5, 4,4'-(cyclohexane-1,1-diyl)diphenol]
Measured Value: 3.29

Compound: Cc1cc(C(c2ccccc2O)c2cc(C)c(O)c(C)c2C)c(C)c(C)c1O [Compound 7]
Measured Value: 1.45

Compound: CC(C)(c1ccc(O)cc1)c1ccc(C(C)(c2ccc(O)cc2)c2ccc(O)cc2)cc1 [Compound 12]
Measured Value: 1.02

Compound: CC(C)(c1ccc(O)cc1)c1cccc(C(C)(C)c2ccc(O)cc2)c1 [Compound 10]
Measured Value: 1.12

Compound: Nc1ccc(Oc2ccc(C(c3ccc(Oc4ccc(N)cc4)cc3)(C(F)(F)F)C(F)(F)F)cc2)cc1 [Compound 17]
Measured Value: 1.46
